molecular target: recombinant human PAI-1 (Homo sapiens, UniProt P05121); assay: biochemical; conditions: read-out: Inhibition Rate of PAI-1 Activity (%), Compound Concentration 10µM
Sequence (P05121 24-402): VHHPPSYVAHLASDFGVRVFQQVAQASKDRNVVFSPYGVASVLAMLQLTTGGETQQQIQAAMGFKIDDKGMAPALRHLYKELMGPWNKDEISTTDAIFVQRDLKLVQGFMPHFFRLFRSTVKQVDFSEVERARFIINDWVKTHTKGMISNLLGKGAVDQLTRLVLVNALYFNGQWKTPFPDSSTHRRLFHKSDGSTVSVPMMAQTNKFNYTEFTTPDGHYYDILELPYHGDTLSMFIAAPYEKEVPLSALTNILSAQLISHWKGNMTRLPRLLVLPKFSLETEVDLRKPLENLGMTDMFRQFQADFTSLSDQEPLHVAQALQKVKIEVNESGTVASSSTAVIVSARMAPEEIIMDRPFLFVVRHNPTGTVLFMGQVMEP
measured.metric: inhibition at 10 µM (%)
Give bare numbers, in %.

Reference set, count: 6
molecule	measured.value
CC(C)(C)c1ccc(CN(C(=O)C(=O)O)c2ccc(Oc3ccc(OC(F)(F)F)cc3)cc2C(F)(F)F)cc1	92
CCC(CC)Oc1ccc(N(Cc2ccc(C(C)(C)C)cc2)C(=O)C(=O)O)cc1-c1ccc(OC(F)(F)F)cc1	92
CC(C)(C)c1ccc(COc2ccc(Oc3ccc(OC(F)(F)F)cc3)cc2CCC(=O)O)cc1	75
CCCCOc1ccc(N(Cc2ccc(C(C)(C)C)cc2)C(=O)C(=O)O)cc1-c1ccc(OC(F)(F)F)cc1	89
CC(C)(C)c1ccc(Oc2cccc(-c3ccc(OC(F)(F)F)cc3)c2OCC(=O)O)cc1	85
CCCCOc1ccc(-c2ccc(OC(F)(F)F)cc2)cc1N(Cc1ccc(C(C)(C)C)cc1)C(=O)C(=O)O	95

So what's the measured inhibition at 10 µM for this one? CCCCC(c1ccc(C(C)(C)C)cc1)N(C(=O)C(=O)O)c1ccc(-c2ccc(OC(F)(F)F)cc2)cc1 (stereo not shown)
86

----------
biological target: recombinant human PAI-1 (Homo sapiens); assay: Test Example 2: Human PAI-1 Inhibitory Activity (pH 7.4 HEPES buffer, 10 minutes incubation with two-chain tPA); type: biochemical; parameters: purchased Molecular Innovations, Inc; conditions: read-out: Inhibition Rate of PAI-1 Activity (%)
measured.metric: inhibition at 0.1 µM (%)
Numbers only, in %.

Each of the following entries comes with a recorded value; kindly state inhibition at 0.1 µM for each.
1. CC(CCOc1ccc(-c2ccc(OC(F)(F)F)cc2)cc1OCc1ccc(C(C)(C)C)cc1)C(=O)O (stereo not shown) [Compound 482]
2. CCCCCCC(Oc1cc(-c2ccc(OC(F)(F)F)cc2)ccc1Oc1ccc(C(F)(F)F)cc1)C(=O)O (stereo not shown) [Compound 327]
3. CCCCCOc1ccc(-c2ccc(OC(F)(F)F)cc2)cc1N(CCCCc1ccccc1)CC(=O)O [Compound 640]
4. Cc1cccc(-c2ccc(OCC(=O)O)c(Oc3ccc(C(C)(C)C)cc3)c2)c1 [Compound 319]

1. 7
2. 0
3. 0
4. 0

----------
What inhibition at 1 µM was measured for each of the following?
Target: recombinant rat PAI-1 (Rattus norvegicus, UniProt P20961)
Sequence (P20961 24-402): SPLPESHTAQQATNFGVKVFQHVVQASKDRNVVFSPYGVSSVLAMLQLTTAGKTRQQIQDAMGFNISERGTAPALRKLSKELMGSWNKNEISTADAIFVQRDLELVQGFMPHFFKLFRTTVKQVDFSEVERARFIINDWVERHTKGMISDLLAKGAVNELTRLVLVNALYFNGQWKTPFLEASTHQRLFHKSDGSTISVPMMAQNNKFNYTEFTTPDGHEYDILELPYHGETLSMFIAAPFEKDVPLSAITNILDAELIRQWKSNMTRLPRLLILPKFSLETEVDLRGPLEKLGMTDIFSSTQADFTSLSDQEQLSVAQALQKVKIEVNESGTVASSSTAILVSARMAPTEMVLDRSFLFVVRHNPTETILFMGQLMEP
Assay: biochemical
Conditions: read-out: Inhibition Rate of PAI-1 Activity (%)
One number for each entry, in %.

Reference set, count: 6
structure.as.smiles	result.units	inhibition at 1 µM
CCN(CC)c1ccc(N(CCCc2ccccc2)C(=O)C(=O)O)c(-c2ccc(OC(F)(F)F)cc2)c1	%	8
CC(C)(C)c1ccc(CN(C(=O)C(=O)O)c2cc(C(F)(F)F)ccc2-c2ccc(OC(F)(F)F)cc2)cc1	%	12
CCCCOc1ccc(-c2ccc(OC(F)(F)F)cc2)cc1N(Cc1ccc(C(C)(C)C)cc1)C(=O)C(=O)O	%	32
CC(C)(C)c1ccc(COc2cc(Oc3ccc(OC(F)(F)F)cc3)ccc2CCC(=O)O)cc1	%	4
CC(C)(C)c1ccc(COc2cc(-c3ccc(OC(F)(F)F)cc3)ccc2CCC(=O)O)cc1	%	6
O=C(O)CCc1cc(-c2ccc(OC(F)(F)F)cc2)ccc1OCCCCc1ccccc1	%	12

So what's the measured inhibition at 1 µM for this one? `CC(C)(C)c1ccc(COc2ccc(-c3ccc(OC(F)(F)F)cc3)cc2CC(=O)O)cc1`
15

The origin of these recorded values is patent EP2272817A1.
